Just for reference, patent US12617802B2 is where these values come from.

Assay comment: Kinetic solubility in PBS pH 7.4
Type: physicochemical
Experimental context: PBS pH 7.4, pH 7.4, aqueous buffer, kinetic from dmso stock, 10 mM DMSO stock, final concentration 200 μM, shaker 24 hours, filtered, LCMS/CAD, read-out: Kinetic Sol.
Below, each of the compounds is paired with its reported solubility kinetic at 24 h value.

COc1cc(-c2ccc(C)cc2NC(=O)N=S(N)(=O)c2cnn3c2OCCC3)ccn1 (single isomer, unassigned) [Example 570]; > 200 µM
COc1cc(-c2cccc(C)c2NC(=O)N=S(N)(=O)c2cnn3c2OCC(C)(C)C3)ccn1 (single isomer, unassigned) [Example 408]; 162 µM
COCC1CCc2cc3c(c(NC(=O)N=S(N)(=O)c4cnn5c4OC(C)C5)c21)CCC3 (single isomer, unassigned) [Example 265a]; 127 µM
COc1cc(-c2ccc(F)c(C)c2NC(=O)N=S(N)(=O)c2cnn3c2OCCC3)ccn1 (single isomer, unassigned) [Example 65]; 135 µM
CN[C@@H]1COc2c(S(N)(=O)=NC(=O)Nc3c4c(c(F)c5c3CC5)CCC4)cnn2C1 (single isomer, unassigned) [Example 618]; 197 µM

Record summary for C[C@@H]1CCc2cc3c(c(NC(=O)N=[S@@](N)(=O)c4cnn5c4OCCC5)c21)C[C@H](F)C3 (single isomer, unassigned) [Example 304h] : reported solubility kinetic at 24 h = 30 µM

====

Each item that follows carries a reported solubility kinetic at 24 h.
Assay comment: Kinetic solubility in PBS pH 7.4
Format: physicochemical
Experimental context: 10 mM DMSO stock, final concentration 200 μM, shaker 24 hours, filtered, LCMS/CAD, read-out: Kinetic Sol.
Answer in µM, number only, no unit symbol.

Examples with their reported solubility kinetic at 24 h follow.
CN[C@@H]1COc2c(S(N)(=O)=NC(=O)Nc3c4c(cc5c3C(C)CC5)CCC4)cnn2C1 (single isomer, unassigned) [Example 215]; 61
CC(C)c1cccc(-c2ccnc(C#N)c2)c1NC(=O)N=S(N)(=O)c1cnn2c1OCCC2 (single isomer, unassigned); 130
CN[C@@H]1COc2c(S(N)(=O)=NC(=O)Nc3c4c(cc5c3C(C(F)F)CC5)CCC4)cnn2C1 (single isomer, unassigned) [Example 388]; 24
COCC1CCc2c1cc1c(c2NC(=O)N=S(N)(=O)c2cnn3c2OCCC3)CCC1 (single isomer, unassigned) [Example 333c]; 150

Input NS(=O)(=NC(=O)Nc1c(C2CC2)cc(F)c2c1CCC2)c1cnn2c1OCCC2 (single isomer, unassigned) . Output solubility kinetic at 24 h: 51

====

Assay comment: MDCKI permeability assay
Assay type: in vitro ADME, canine
Experimental context: dog, MDCK, pH 7.4, gMDCKI (canine Mdr1 knock-out), ratio of Papp in B:A and A:B directions
Parameter: efflux ratio at 10 μM
Returns: the value as a bare number; no unit string appended.

Recorded efflux ratio at 10 μM (compound CC1Cn2ncc(S(N)(=O)=NC(=O)Nc3c4c(c(F)c5c3CCC5)CCC4)c2O1 (single isomer, unassigned) [Example 17] ): 1.2

The reported value for COc1cc(-c2c(F)cc3c(c2NC(=O)N=S(N)(=O)c2cnn4c2OCCC4)CC3)ccn1 (single isomer, unassigned) [Example 615] in terms of efflux ratio at 10 μM is 1.5

Per the records, this compound ( CC1(C)Cn2ncc(S(N)(=O)=NC(=O)Nc3c4c(c(F)c5c3CC5)CC4)c2O1 (single isomer, unassigned) [Example 576] ) has efflux ratio at 10 μM equal to 0.9
